Data credit: the supplement of paper PMC10981050

# Tested on: OCI-AML2;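 further: after 48 h exposure read by CellTiter-Glo luminescence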
# PROTOCOL_SUMMARY: cell viability relative to vehicle control; higher = less cytotoxic
# EXPERIMENTAL_CONDITIONS: 10 µM; SRSF2 genotype: wt/wt
Counter-ions that a name gives are not always drawn.
VALUE_TYPE: cell viability (%)

COMPOUND	NUMERIC_VALUE
Cc1cc(O)c(-c2ccc([C@@H](C)CN)cc2)c2c1[nH]c(=O)c1sccc12 [OTS514 hydrochloride]	8.87
CC1(C)O[C@@H]2[C@@H](CO[C@@]3(COS(N)(=O)=O)OC(C)(C)O[C@@H]23)O1 [Topiramate]	113
CC(C)CN(CC(=O)N1CCN(CC(OCc2ccc3ccccc3c2)c2ccc(Cl)cc2Cl)CC1)CC(C)C (stereo not given)	41.8
CN(CCOc1ccc(CC2SC(=O)NC2=O)cc1)c1ccccn1 (stereo not given) [Rosiglitazone maleate]	107
OCC(O)C(O)CO (stereo not given)	110
CNC1CCC(N(Cc2cccc(-c3ccncc3)c2)C(=O)c2sc3ccccc3c2Cl)CC1 (stereo not given) [Smoothened Agonist (SAG) HCl]	26.1
C=C1CCC2C(C)(COC(=O)CCC(=O)O)C(OC(=O)CCC(=O)O)CCC2(C)C1C=CC1=CCOC1=O (stereo not given) [Dehydroandrographolide Succinate]	105
COc1ccc2[nH]cc(CCNC(C)=O)c2c1	103
C[C@H](CCC(=O)O)[C@H]1CC[C@H]2[C@@H]3[C@H](O)C[C@@H]4C[C@H](O)CC[C@]4(C)[C@H]3CC[C@]12C	106
Nc1ccc(-c2ccc3ncc4ccc(=O)n(-c5cccc(C(F)(F)F)c5)c4c3c2)cn1	7.04
O=C1C(=C(O)C=Cc2ccc(O)cc2)C(O)=C([C@@H]2O[C@H](CO)[C@@H](O)[C@H](O)[C@H]2O)C(=O)C1(O)[C@@H]1O[C@H](CO)[C@@H](O)[C@H](O)[C@H]1O (stereo not given in full) [Hydroxy safflor yellow A]	104
CC(C)[C@H]1CC[C@H](C(=O)N[C@H](Cc2ccccc2)C(=O)O)CC1 [Nateglinide (Starlix)]	97.5
COc1ccccc1Oc1c(NS(=O)(=O)c2ccc(C(C)(C)C)cc2)nc(-c2ncccn2)nc1OCCO [Bosentan Hydrate]	95.2
CNS(=O)(=O)C[C@H]1CC[C@H](N(C)c2[nH]cnc3nccc2-3)CC1 [Oclacitinib maleate]	72.5
COc1ccc(/C=C/c2cc(OC)cc(=O)o2)cc1	98.2
